# assay-system: T1, Cdc2b (Cdc2bAt) in DB-vector (A. thaliana, UniProt P04386 1-147; P25859 1-309)
# T1 construct: Yeast two-hybrid DB/BD fusion
# assay-name: yeast two-hybrid (MaV203), X-Gal filter assay for β-galactosidase; AD construct x BD construct
property: binding result

binder="ICN6 (AD construct) (other, not shown: large carriers, also called ICK5) LSPEKTIMSLREMSETKPKRDSEYEGSNIKRMRLDDDDDVLRSPTRTLSSSSSSSLAYSVSDSGGFCSVALSEEEDDHLSSSISSGCSSSETNEIATRLPFSDLEAHEISETEISTLLTNNFRKQGISSSENLGETAEMDSATTEMRDQRKTEKKKKMEKSPTQAELDDFFSAAERYEQKRFTEKYNYDIVNDTPLEGRYQWVSLKP" reading="no binding"
binder="ICN7 (AD construct) (other, not shown: large carriers, also called ICK6) MGKYMKKSKITGDISVMEVSKATAPSPGVRTRAAKTLALKRLNSSAADSALPNDSSCYLQLRSRRLEKPSSLIEPKQPPRVHRSGIKESGSRSRVDSVNSAPVAQSSNEDECFDNFVSVQVSCGENSLGFESRHSTRESTPCNFVEDMEIMVTPGSSTRSMCRATKEYTREQDNVIPTTSEMEEFFAYAEQQQQRLFMEKYNFDIVNDIPLSGRYEWVQVKP" reading="no binding"
binder="ICK1 in a GAL4-activation domain vector (other, not shown: large carriers, Yeast two-hybrid AD fusion; the GAL4 domain is placed first as in standard vectors) MVRKYRKAKGIVEAGVSSTYMQLRSRRIVYVRSEKSSSVSVVGDNGVSSSCSGSNEYKKKELIHLEEEDKDGDTETSTYRRGTKRKLFENLREEEKEELSKSMENYSSEFESAVKESLDCCCSGRKTMEETVTAEEEEKAKLMTEMPTESEIEDFFVEAEKQLKEKFKKKYNFDFEKEKPLEGRYEWVKLE" reading="no binding"
